Ref: patent US20250243286A1

Biological target: ActRIIA and ActRIIB (on TGFB/SMAD SBE Reporter HEK293 cells) (human)
Sequence (chain, as listed by the source, chain 1 of 2): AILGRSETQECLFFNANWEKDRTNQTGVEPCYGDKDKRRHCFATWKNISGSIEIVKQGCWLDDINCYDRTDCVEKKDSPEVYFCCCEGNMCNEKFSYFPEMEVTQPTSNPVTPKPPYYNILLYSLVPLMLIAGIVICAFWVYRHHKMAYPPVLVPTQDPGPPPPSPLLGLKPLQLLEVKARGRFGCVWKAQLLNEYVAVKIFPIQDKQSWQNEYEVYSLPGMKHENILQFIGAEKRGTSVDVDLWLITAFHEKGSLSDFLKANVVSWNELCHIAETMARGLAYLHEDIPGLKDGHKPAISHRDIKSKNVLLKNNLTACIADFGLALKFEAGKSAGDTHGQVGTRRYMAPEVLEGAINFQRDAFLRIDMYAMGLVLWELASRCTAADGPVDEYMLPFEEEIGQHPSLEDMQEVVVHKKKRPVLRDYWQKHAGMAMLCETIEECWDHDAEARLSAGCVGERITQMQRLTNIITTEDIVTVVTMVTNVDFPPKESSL
Sequence (chain, as listed by the source, chain 2 of 2): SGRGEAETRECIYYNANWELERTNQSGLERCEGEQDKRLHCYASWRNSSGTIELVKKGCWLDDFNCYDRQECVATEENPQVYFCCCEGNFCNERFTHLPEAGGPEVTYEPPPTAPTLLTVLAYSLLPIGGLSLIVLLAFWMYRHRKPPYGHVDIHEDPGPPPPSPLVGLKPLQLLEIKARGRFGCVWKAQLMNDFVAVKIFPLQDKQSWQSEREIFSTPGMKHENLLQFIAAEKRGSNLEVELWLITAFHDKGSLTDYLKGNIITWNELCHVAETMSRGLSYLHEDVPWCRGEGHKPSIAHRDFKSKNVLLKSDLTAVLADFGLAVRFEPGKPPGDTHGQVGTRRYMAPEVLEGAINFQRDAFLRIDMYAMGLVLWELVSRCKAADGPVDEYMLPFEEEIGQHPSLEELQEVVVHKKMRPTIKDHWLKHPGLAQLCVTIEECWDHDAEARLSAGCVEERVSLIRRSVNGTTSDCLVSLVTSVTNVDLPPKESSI
Test: cell-based or functional assay
Rule: measured IC90, Activin SMAD RGA below 4 nM gets yes; anything equal to or greater than 4 nM gets no.

{"binder": "Antibody Dürrfloischeggla (antibody, V domains shown, full-length IgG) VH: QVQLVQSGAEVKKPGASVKVSCKASGYTFTSSYINWVRQAPGQGLEWMGTINAVSGSTSYAQKFQGRVTMTRDVSISTAYMELSRLRSDDTAVYYCARGGWFDYWGQGTLVTVSS VL: QSALTQPASVSGSPGQSITISCTGTSSDVGSYNVVNWYQQHPGKAPKLMISGVSKRESGVSNRFSGSKSGNTASLTISGLQAEDEADYYCGTFAGGKYYGVFGGGTKLTVL", "class-name": "no"}

Q: Could you please tell me whether IC90, Activin SMAD RGA recorded for Antibody Backstoikäs (antibody, V domains shown, full-length IgG) VH: QVQLVQSGAEVKKPGASVKVSCKASGYKFTSSYINWVRQAPGQGLEWMGTINPVSGSTSYAQKFQGRVTMTRDTSISTAYMELSRLRSDDTAVYYCARGGWFDYWGQGTLVTVSS VL: QSALTQPASVSGSPGQSITISCTGTSSDVGSYNYVNWYQQHPGKAPKLMIYGVSKRPRGVSNRFSGSKSGNTASLTISGLQAEDEADYYCGTFAGGSYYGVFGGGTKLTVL is less than 4 nM?
Ans: yes

Q: Could you please tell me whether IC90, Activin SMAD RGA recorded for Antibody Soidawürstle (antibody, V domains shown, full-length IgG; also called Soidawüsrstel) VH: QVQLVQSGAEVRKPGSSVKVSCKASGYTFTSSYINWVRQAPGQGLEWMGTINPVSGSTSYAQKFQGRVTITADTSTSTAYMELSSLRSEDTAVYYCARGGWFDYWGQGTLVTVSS VL: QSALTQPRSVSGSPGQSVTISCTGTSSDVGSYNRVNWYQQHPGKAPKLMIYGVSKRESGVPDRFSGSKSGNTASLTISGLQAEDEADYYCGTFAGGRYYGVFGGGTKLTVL is less than 4 nM?
Ans: yes

Q: Could you please tell me whether IC90, Activin SMAD RGA recorded for Antibody Springerle (antibody, V domains shown, full-length IgG) VH: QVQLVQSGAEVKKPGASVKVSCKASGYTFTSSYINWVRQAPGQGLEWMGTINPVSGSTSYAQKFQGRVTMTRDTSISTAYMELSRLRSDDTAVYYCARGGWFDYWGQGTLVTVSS VL: QSALTQPASVSGSPGQSITISCTGTSSDVGSYNYVNWYQQHPGKAPKLMIYGVSKRESGVSNRFSGSKSGNTASLTISGLQAEDEADYYCGTFAGGSYRGVFGGGTKLTVL is less than 4 nM?
Ans: yes

Q: Could you please tell me whether IC90, Activin SMAD RGA recorded for Antibody Bäratatza (antibody, V domains shown, full-length IgG) VH: QVQLVQSGAEVKKPGASVKVSCKASGYTFTSSYINWVRQAPGQGLEWMGTINAVSGSTSYAQKFQGRVTMTRDTSISTAYMELSRLRSDDTAVYYCARSGWFDYWGQGTLVTVSS VL: QSALTQPASVSGSPGQSITISCTGTSSDVGSYNYVNWYQQHPGKAPKLMIYGVSKQQSGVSNRFSGSKSGNTASLTISGLQAEDEADYYCGTFAGGSYYGVFGGGTKLTVL is less than 4 nM?
Ans: yes
